- Test system: Cyberlindnera jadinii
- ASSAY_OVERVIEW: Antifungal activity against Cyberlindnera jadinii NRRL Y-900 after 24 hr by NCCLS broth microdilution method
- Format: functional
- COND: Williopsis jadinii, NRRL Y-900, 24 h
# Fulfilled = MIC below 200 µg/mL (exclusive); Not fulfilled = MIC at/above 200 µg/mL

Below are worked cases with known answers.
COc1ccc(C2OC(c3ccc(F)cc3)=NN2C(C)=O)cc1O (stereo unspecified)    Not fulfilled
O=C(N/N=C/c1ccc(Br)cc1)c1ccc(F)cc1    Not fulfilled
CC(=O)N1N=C(c2ccc(F)cc2)OC1c1ccc(F)cc1 (stereo unspecified)    Not fulfilled
CC(=O)N1N=C(c2ccc(F)cc2)OC1c1ccc(O)cc1 (stereo unspecified)    Fulfilled
CN(C)c1ccc(/C=C/C=N/NC(=O)c2ccc(F)cc2)cc1    Not fulfilled
COc1ccc(/C=N/NC(=O)c2ccc(F)cc2)cc1    Not fulfilled
CC(=O)N1N=C(c2ccc(F)cc2)OC1c1ccco1 (stereo unspecified)    Not fulfilled
CC(=O)N1N=C(c2ccc(F)cc2)OC1c1ccc(Br)s1 (stereo unspecified)    Not fulfilled
CC(=O)N1CCN(c2ccc(OCC3COC(Cn4ccnc4)(c4ccc(Cl)cc4Cl)O3)cc2)CC1 (stereo unspecified)    Fulfilled
COc1ccc(C2OC(c3ccc(F)cc3)=NN2C(C)=O)cc1 (stereo unspecified)    Not fulfilled

Lookup: Threshold test, MIC < 200 µg/mL: CN(C)c1ccc(/C=N/NC(=O)c2ccc(F)cc2)cc1
Found: Not fulfilled
